Test system: platelets in platelet-rich plasma
Assay: Thrombin-induced platelet aggregation in platelet-rich plasma
Format: cell-based, human
Conditions: Homo sapiens, Platelet, multiple values = individual measurements
Description: The procedure for this assay is similar to that described in Biological Example 2, above. Briefly, platelet aggregation studies were performed according to the method of Bednar et al. (Bednar, B., Condra, C., Gould, R. J., and Connolly, T. M., Thromb. Res., 77:453-463 (1995)). Platelet-rich plasma (PRP) concentrates prepared from healthy volunteers who were aspirin free for at least 7 days by venipuncture using EDTA as anticoagulant was purchased from Biological Specialties, Inc. (Colmar, Pa.). […]
metricName: IC50 (µM)
The figure you give is taken to be in µM; do not add the unit.

[Q] Dear colleague, I am looking for the recorded IC50 of the following molecule: COc1c(N2CCN(C)CC2)cc(C(=O)CN2Cc3cc4c(cc3C2=N)OCc2cccnc2CO4)cc1C(C)(C)C
[A] 0.38

[Q] Dear colleague, I am looking for the recorded IC50 of the following molecule: CC(C)(C)c1cc(C(=O)CN2Cc3cc4c(cc3C2=N)OCc2ncccc2CO4)ccc1O
[A] 2.57

====

tested on: platelets in platelet-rich plasma; test: Thrombin-induced platelet aggregation in platelet-rich plasma; format: cell-based, human; details: Homo sapiens, Platelet, multiple values = individual measurements
metricName: pIC50
pIC50 (log units): -log10 of the concentration in mol/L.

[Q] Dear colleague, I am looking for the recorded pIC50 of the following compound: COc1c(N2CCOCC2)cc(C(=O)CN2Cc3cc4c(cc3C2=N)OCc2cc(F)c(F)cc2CO4)cc1C(C)(C)C [Compound 89]
[A] 5.31

[Q] Dear colleague, I am looking for the recorded pIC50 of the following compound: CC(C)(C)c1cc(C(=O)CN2Cc3cc4c(cc3C2=N)OC/C=C\CO4)cc(C(C)(C)C)c1O [Compound 100]
[A] 5.72

[Q] Dear colleague, I am looking for the recorded pIC50 of the following compound: CC(C)(C)c1cc(C(=O)CN2Cc3cc4c(c(F)c3C2=N)OCc2ccccc2CO4)cc(C(C)(C)C)c1O [Compound 96]
[A] 5.49

[Q] Dear colleague, I am looking for the recorded pIC50 of the following compound: COc1c(N2CCOCC2)cc(C(=O)CN2Cc3cc4c(cc3C2=N)OCc2c(F)ccc(F)c2CO4)cc1C(C)(C)C [Compound 88]
[A] 5.45

[Q] Dear colleague, I am looking for the recorded pIC50 of the following compound: COc1c(N2CCOCC2)cc(C(=O)CN2Cc3cc4c(cc3C2=N)OC/C=C\CO4)cc1C(C)(C)C [Compound 97]
[A] 5.66

[Q] Dear colleague, I am looking for the recorded pIC50 of the following compound: COc1c(N2CCOCC2)cc(C(=O)CN2Cc3cc4c(cc3C2=N)OCc2ccccc2CO4)cc1C(C)(C)C [Compound 46]
[A] 5.33

====

tested on: platelets in platelet-rich plasma; assay: Thrombin-induced platelet aggregation in platelet-rich plasma; assay type: cell-based, human; conditions: multiple values = individual measurements
metricName: pIC50
pIC50 (log units): -log10 of the concentration in mol/L.

[Q] Dear colleague, I am looking for the recorded pIC50 of the following molecule: CC(C)(C)c1cc(C(=O)CN2Cc3cc4c(c(F)c3C2=N)OCc2ccccc2CO4)cc(C(C)(C)C)c1O [Compound 96]
[A] 5.49

[Q] Dear colleague, I am looking for the recorded pIC50 of the following molecule: CC(C)(C)c1cc(C(=O)CN2Cc3cc4c(cc3C2=N)OCc2ccccc2CO4)cc(C(C)(C)C)c1O [Compound 47]
[A] 5.56

[Q] Dear colleague, I am looking for the recorded pIC50 of the following molecule: COc1c(N2CCOCC2)cc(C(=O)CN2Cc3cc4c(cc3C2=N)OCc2c(F)ccc(F)c2CO4)cc1C(C)(C)C [Compound 88]
[A] 5.58
